Exercise: for every item that follows, state its recorded IC50.
tested on: MDA-MB-231; test: MTT cytotoxicity assay, MDA-MB-231 cells; type: cell-based; conditions: Homo sapiens, MDA-MB-231, 72 h, read-out: IC50 (μM) MDA-MB-231
Answers are plain numbers, in µM.

{"compound": "COc1cc(-c2coc3c(CC=C(C)C)c(OC)c(OC)c(O)c3c2=O)c(OC)cc1O [Compound 5]", "scale_unit": "µM", "IC50": 27.6}

Provide each entry's IC50 from the list below.
1. COc1cc(OC)c(-c2coc3c(CC=C(C)C)c(OC)c(OC)cc3c2=O)cc1OC [Compound 4]
2. COc1cccc2c1C(=O)c1c(O)c3c(c(O)c1C2=O)C[C@@](O)(C(=O)CO)C[C@@H]3O[C@H]1C[C@H](N)[C@H](O)[C@H](C)O1 [Doxorubicin, reference compound]

**A:**
[15.8, 0.03]
